Hello, the source for this data is patent US20250326748A1, in case you need it.

The following compounds are shown together with reported IC50 values.
# Tested on: MYB mRNA
# testDescription: Splicing RT-qPCR assay, MYB canonical (CJ) and alternative (AJ) junction mRNA
# Type: cell-based, human
# statedConditions: Homo sapiens, canonical junction mRNA, qPCR panel; read-out: MYB CJ (decrease in CJ mRNA levels, IC50)

Here is how some compounds turned out for IC50.
# query: IC50 of entry CN[C@@H]1CN(c2cnc3nc(-c4cc5cn(C)nc5c(C)c4O)ccc3c2)C[C@H]1F (single isomer, unassigned) [Compound 130]
< 100 nM

Bench note: what IC50 did Cc1c(O)c(-c2ccc3cc(N4CCC(N(C)C)CC4)cnc3n2)cc2cn(C)nc12 [Compound 138] show?
100 to 1000 nM

So what's the measured IC50 for this one? Cl.Cn1cc2cc(-c3cc(Cl)c4cc(N5CC[C@H](NCCF)C5)cnc4n3)c(O)cc2n1 [Compound 389]
100 to 1000 nM

Look up IC50 for this compound: CN[C@@H]1CN(c2cnc3nc(-c4cc5cn(C)nc5c(C)c4O)ccc3c2)C[C@@H]1F [Compound 132]
100 to 1000 nM

What measured IC50 goes with C[C@H]1CN(c2cnc3nc(-c4cc5cn(C)nc5cc4O)cc(Cl)c3c2)CC2(CC2)N1 [Compound 379] ?
100 to 1000 nM

Query: IC50; subject: COc1nc(-c2cc(Cl)c3cc(N4C[C@H](C)N[C@@H](C)C4)cnc3n2)cn2cc(C)nc12 [Compound 403]
1000 to 10000 nM

So what does the record say about IC50 for CN[C@@H]1CN(c2cnc3nc(-c4cc5cn(C)nc5c(C)c4O)ccc3c2)C[C@H]1C [Compound 126] ?
100 to 1000 nM

Would you kindly share the measured IC50 for Cn1cc2cc(-c3cc(Cl)c4cc(N5CCNC(C6CC6)C5)cnc4n3)cc(F)c2n1 (stereo not drawn) [Compound 209] ?
100 to 1000 nM

Next:
Which IC50 reading was recorded for the compound CN[C@H]1CCN(c2cnc3nc(-c4cc(C)c5nc(C)cn5n4)ccc3c2)C1 [Compound 116] ?
< 100 nM

What measured IC50 goes with Cc1cn2cc(-c3cc(Cl)c4cc(N5C[C@@H](C)N[C@@H](C)C5)cnc4n3)cc(F)c2n1 [Compound 297] ?
100 to 1000 nM

Given CNC1CCN(c2cnc3nc(-c4cc5cn(C)nc5c(C)c4O)ccc3n2)C1 (stereo not drawn) [Compound 192] , state its recorded IC50.
100 to 1000 nM

# IC50 lookup, item Cn1cc2cc(-c3cc(Cl)c4cc(N5CCNCC5)cnc4n3)c(O)cc2n1 [Compound 102]
< 100 nM

Which measured IC50 value corresponds to CN1CCC[C@H]2CN(c3cnc4nc(-c5cc(F)c6nn(C)cc6c5)cc(Cl)c4c3)C[C@H]21 [Compound 376] ?
1000 to 10000 nM

So what's the measured IC50 for this one? Cc1c(O)c(-c2ccc3nc(N4C[C@@H](C)N[C@@H](C)C4)cnc3n2)cc2cn(C)nc12 [Compound 195]
100 to 1000 nM

Entry COc1cc(-c2cc3cn(C)nc3c(C)c2O)nc2ncc(N3CCNCC3)cc12 [Compound 152, 2,2,2-trifluoroacetate] : reported IC50 = ?
100 to 1000 nM
